TEST DESCRIPTION: Clinical pharmacokinetic study of MB-102 given intravenously: plasma and urine collection
Type: in vivo, human
ASSAY SETUP: human, urine, intravenous; patients having normal, stage 1 and stage 2 renal function; 12 hour collection time; read-out: recovery from urine
MEASURED ENDPOINT: dose excreted

Lookup: Consider the compound shown here: "Nc1nc(C(=O)N[C@H](CO)C(=O)O)c(N)nc1C(=O)N[C@H](CO)C(=O)O" What is its recorded dose excreted?
Found: > 99%

----------
TEST DESCRIPTION: Clinical pharmacokinetic study of MB-102 given intravenously: plasma and urine collection
Assay type: in vivo, human
ASSAY SETUP: human, plasma, intravenous, stage 4 renal impairment; read-out: plasma half-life (converted)
MEASURED ENDPOINT: half-life (h)
Numeric only. Scale: h

Lookup: Sample Nc1nc(C(=O)N[C@H](CO)C(=O)O)c(N)nc1C(=O)N[C@H](CO)C(=O)O [MB-102] — what was its half-life?
Found: 8
